- Test system: ACHN renal
- experiment: NCI tumour cell line growth inhibition, 48 h; in the data active means GI50 below about 0.43 µM; inactive means the rest
One label from this list, please: active, inactive

[[record]]
compound = "Cc1ccc2[nH]c(C(=O)NN3C(=O)C(C)SC34CCCCC4C)c(-c3ccccc3)c2c1 (centres undefined)"
labelvalue = "inactive"


Test call for this compound, please: O=C(Nc1cccc(-n2ccc3c(NC(=O)c4ccccc4)nccc32)c1)c1cc(N2CCOCC2)cc(C(F)(F)F)c1
active

Test call for this compound, please: Cc1ccc(C[P+](c2ccccc2)(c2ccccc2)c2ccccc2)cc1
inactive

Test call for this compound, please: COc1ccc(-n2c3c(c4c(CN(C)C)c(O)c(C)cc42)CCc2ccccc2C3=O)cc1
inactive

Test call for this compound, please: COc1ccc(C2=C(c3cc(OC)c(OC)c(OC)c3)C(=O)OC2)cc1OC
inactive

Test call for this compound, please: CCOC(=O)C1=C(c2ccccc2)N(c2ccc(OC)cc2)[C@]2(C#N)C(O)=C(Cl)C(Cl)=C(O)[C@]12C#N
inactive

Test call for this compound, please: CO/C(=N\N=C\c1cccc(C(F)(F)F)c1)c1ccncc1
inactive

Test call for this compound, please: COc1cc(-c2n/c(=C\c3c(O)[nH]c4ccccc34)cc3c2=Nc2ccccc2-3)cc(OC)c1OC
inactive

Test call for this compound, please: Nc1ccc(-n2c(=O)oc3ccc(Cl)cc3c2=O)c(Cl)c1
active
